system: T1, TNFR1 (Homo sapiens, UniProt P19438)
T1 chain: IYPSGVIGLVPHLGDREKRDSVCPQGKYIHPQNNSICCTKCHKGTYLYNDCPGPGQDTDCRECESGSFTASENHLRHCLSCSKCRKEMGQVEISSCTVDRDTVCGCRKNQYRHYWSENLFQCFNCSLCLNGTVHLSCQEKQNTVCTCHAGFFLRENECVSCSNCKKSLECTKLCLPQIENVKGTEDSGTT
procedureText: yeast display SC50
endpoint: apparent Kd (screen) (nM)

A = E104T (designed binder) SMEEEVEKAAKEYEKKKKEAIEKHLEKLKAKDKEAAERFLKELEEAAKEYAKDEAKTMSEEEAKRRAKKYKEKVLLSELSEEEQKEIKEAEEKLVRTILKYVETAAK
B = E72P (designed binder) SMEEEVEKAAKEYEKKKKEAIEKHLEKLKAKDKEAAERFLKELEEAAKEYAKDEAKTMSEEEAKRRAKKYKPKVLLSELSEEEQKEIKEAEEKLVRTILKYVEEAAK
Of the two listed items, A and B , which carries the larger apparent Kd (screen) figure? Pick one and reply with its label.
B
(B: 1.05 nM, A: 0.49 nM)
